quantity.kind: IC50 (µM)
Enter your answer as a number in µM; do not include the unit.

Under UniProt O94921: report IC50 of CN1C(=O)[C@@H](N2CCc3c(nn(Cc4ccccc4)c3Br)C2=O)COc2ccccc21 [TP-030-2] .
Sequence (O94921 whole entry): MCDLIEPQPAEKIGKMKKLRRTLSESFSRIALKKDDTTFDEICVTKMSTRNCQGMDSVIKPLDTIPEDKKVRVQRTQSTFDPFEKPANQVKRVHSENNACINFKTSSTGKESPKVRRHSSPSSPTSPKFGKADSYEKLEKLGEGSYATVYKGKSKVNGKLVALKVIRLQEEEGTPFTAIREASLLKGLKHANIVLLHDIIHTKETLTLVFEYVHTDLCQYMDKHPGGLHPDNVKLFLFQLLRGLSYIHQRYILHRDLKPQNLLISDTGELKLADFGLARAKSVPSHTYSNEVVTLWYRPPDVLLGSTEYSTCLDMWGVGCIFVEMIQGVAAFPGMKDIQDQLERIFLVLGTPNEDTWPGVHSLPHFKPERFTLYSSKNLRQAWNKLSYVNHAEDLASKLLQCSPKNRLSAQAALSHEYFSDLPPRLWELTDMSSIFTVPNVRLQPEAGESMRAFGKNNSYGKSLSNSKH
1

###

tested.target: Casein kinase I isoform gamma-2 (Homo sapiens, UniProt P78368)
Sequence (P78368 whole entry, canonical isoform): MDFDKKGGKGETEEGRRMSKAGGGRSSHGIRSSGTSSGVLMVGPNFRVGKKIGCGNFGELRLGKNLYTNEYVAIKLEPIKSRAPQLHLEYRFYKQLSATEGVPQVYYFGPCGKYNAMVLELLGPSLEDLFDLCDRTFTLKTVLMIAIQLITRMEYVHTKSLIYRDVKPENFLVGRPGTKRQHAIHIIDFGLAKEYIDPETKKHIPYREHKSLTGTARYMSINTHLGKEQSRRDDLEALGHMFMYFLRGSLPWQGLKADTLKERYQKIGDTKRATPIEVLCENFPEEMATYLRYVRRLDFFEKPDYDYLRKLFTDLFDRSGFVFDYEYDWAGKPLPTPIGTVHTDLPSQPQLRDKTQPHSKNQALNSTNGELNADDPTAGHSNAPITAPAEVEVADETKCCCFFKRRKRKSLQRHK
assay: CK1gamma2(C1G2LGI1) Takeda global kinase panel
quantity.kind: pIC50
pIC50 is defined as minus the log10 of a concentration measured in mol/L.

Note down pIC50 recorded for CN1C(=O)[C@@H](N2CCc3c(nn(Cc4ccccc4)c3Br)C2=O)COc2ccccc21
6.00

###

quantity.kind: IC50

Under Protein kinase C iota type (Homo sapiens): report IC50 of CN1C(=O)[C@@H](N2CCc3c(nn(Cc4ccccc4)c3Br)C2=O)COc2ccccc21 .
1000 nM

Each recorded value in this set is attributed to ChEMBL document CHEMBL4507326.
